Test system: soybean
Test: Test C postemergence
Format: in vivo, Glycine max
Conditions: 31 g ai/ha, postemergence; visual rating, scale 0 to 100 (0 no effect, 100 complete control), 13 to 15 days
experimental_readout: Soybean plant response rating

>>> df
                                   molecule  study_target  reading
0  CCCOc1cnn(-c2c(C#N)cccc2Oc2ncc(Cl)cn2)c1 [Compound 150]       soybean       65
1  N#Cc1cccc(Oc2ncc(Cl)cn2)c1-n1cc(-n2ccc(C(F)(F)F)n2)cn1 [Compound 284]       soybean       35
2  FCc1cn(-c2c(F)cccc2Oc2ncc(Cl)cn2)nn1 [Compound 154]       soybean       65
3  FC(F)(F)c1cnn(-c2c(Cl)cccc2Oc2ncc(Cl)cn2)c1 [Compound 167]       soybean       30

Source listed as patent US9695155B2.
